The values you see were collected from the supplement of paper PMC12455559.

ASSAY TEXT: PET hydrolysis, aromatic products released after 48 h (umol product/mg enzyme); higher = more PET depolymerization activity
REPORTED CONDITIONS: substrate: cryPow; 60 °C; pH 7.5
READOUT NAME: PET hydrolysis

INSERT INTO assay_data (sequence_code, readout_name, assay_value) VALUES
  ('AETTTQHGPDPTEGSITAPTGPFQTDQKTVPRSSVQGFGGGTIYYPTETSQGTFGAVTIAPGYTAGKESLAWLGPRLASQGFVVFTIDTITTSDQPDSRAKQLMASLDYLTGDSDVRDRIDTSRLAVMGHSMGGGGTLEAARDNRNLKAAIPMTPWDTTKDFSGVQTPTLIIGAQNDTIAPVAQHAKPFYGSLPDDPGKAYLELAGASHFAPNQDNTTIAKSSIAWLKRFVDDDTRYDQFLCPPPQDAEISDYQSTCPY [TEP037]', 'PET hydrolysis', '< 3');

Moving on to another sequence below.
Request the reported PET hydrolysis associated with ADNPYQRGPDPTPASVSANRGTFATAQISVPAGNGFGGGVIYHPTDTSQGTFGAIAVVPGYTATWAAEGAWMGHWLASFGFVVIGIDTNSRNDWDTARGTQLLAALDYLTQRSPVRDRVDANRTAVMGHSMGGGGAMHAALQRPSLKAAIGLAPFSPSQNLTTTRVPTMLLAGQSDTTTTPASILNLYNGIPAATEKAYLELTGAGHGFPTSNNPTMMRNVIPWLKIFVDSDTRYTQFLCSLSNWDGIRAYQSTCPLVPSPVPTTTSTTSTTTTISTTTTTPAPGDACSATYRTTNSWPGGYQAEVTVTAGNTAVNGWNVQWTLGSGQTVTQVWNGTLNVSGSTASVRNASYNGSLQANTSTTFGFIGGGTPPTSSLSCTSP [ESM035]
< 3

* * *

ASSAY TEXT: purified protein yield per well (BCA); higher = higher soluble expression
READOUT NAME: purified protein yield per well

INSERT INTO measurements (sequence_code, readout_name, assay_value) VALUES
  ('MRSTSTTPTASSVSGAGAFAISSATVGGGNGFGSATIYFPTDTSQGTFGGLAVSPGFTETQSALRWWAQRLATHGFVVINISTNSTFDNPSSRATQLQNALNYLVNTSSVRTRVDRTRLGVSGHSMGGGGTLEAARNNTALQAAIPLMPWDQTKSFPGILTPTMIVAGQNDTVARPSSHAIPFYNSIPDSSEKVYLELAGAGHNASNSTNPTISLFGVSWAKRYIDNGTRYEQFICPGGGSGISSYRQT [ESM152]', 'purified protein yield per well', '< 25 µg');

Give the measured purified protein yield per well of CATAGSTTDSAPVSAASLSVDGAYEVRTYSDFPDVPEFGAATIYYPVGVPQPIGGVAIAPGFTEEQRHISWWGPRLASHGYAVLVLDTNERRERPDARASALIAGVTLLRAEGLRQGSPLFGGIDLAKMAIMGHSMGGGGALLAANEHSDQIRAAIPFTPWEPETNLGGVSAPTLVLAGAADGIAEVDEHAWRHFSMIPESTPKVYLEIAGGDHYIADTTRGTDLATVGRYAIAWLKLYVDRDERYRDFIYGE [TEP065] .
< 25 µg

Moving on to FNPGSGGGSGGANTCETNCGFERGPDPTLSGLRSGTGPYSVSTVDVPYGSAGFGGGTIHYPTNTSGGKMGAIAVIPGFVSPESSIGWWGPALASQGFVVLTMGTQTPLDSPSARARQLTAGLDHLVEQSNSSSSAISGLVDPSRVAMVGWSMGGGGTLKNAAGDRLSAAIPLAPFDMDMSSYKNIETPTMILGCESDIIAAADLFAVPSYEHIPESTDKAYFEFAGQGHWCANGNNDNNELLSILGVSWMKRYLDKDTRYDQFLCGTNHSSNSAFSQVRDTCN [DP064]
< 25 µg
